The following compounds are listed with their measured Gal4 activity range @ 1 μM (% inhibition) values.
assayedSystem: yeast Gal4-DNA binding domain fused to the ligand binding domain of human RORγ (Homo sapiens, UniProt P51449)
Construct: host or cells: HEK293t
procedureSummary: RORγ Reporter Assay (Gal4)
Type: cell-based
assayConditions: RORγ Reporter Assay (Gal4) at 1 μM; values given as lower bounds of ranges

{"columns": ["compound", "resultValue"],
 "data": [
  ["COc1ccc(CNc2ncnc(N3CCCC3c3ccc(C(F)(F)F)cc3)c2F)cn1 (stereo not drawn)", ">80 % inhibition"]
]}

# input What value of measured Gal4 activity range @ 1 μM (% inhibition) is listed for CS(=O)(=O)N1CCC(CNc2ncnc(N3CCOCC3c3ccccc3)c2F)CC1 (stereo not drawn) ?
# output >50 % inhibition

# input Which value of Gal4 activity range @ 1 μM (% inhibition) has been reported for NC(=O)Cc1ccc(Cn2ccc3c(N4CCOC[C@@H]4c4ccc(C(F)(F)F)cn4)ncnc32)cc1 in the records?
# output >80 % inhibition

====

assayedSystem: human RORγt (Ligand Binding Domain) (Homo sapiens)
Construct: purchased Crelux (Planegg, Germany) batch no PC5032-1
Sequence (P51449 269-508 limits assumed): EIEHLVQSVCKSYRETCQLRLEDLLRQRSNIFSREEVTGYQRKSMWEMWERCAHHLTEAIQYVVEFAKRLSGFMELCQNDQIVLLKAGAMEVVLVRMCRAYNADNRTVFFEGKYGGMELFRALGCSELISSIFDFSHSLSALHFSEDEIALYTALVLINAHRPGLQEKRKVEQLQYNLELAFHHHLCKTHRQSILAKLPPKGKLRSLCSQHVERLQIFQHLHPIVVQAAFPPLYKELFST
procedureSummary: Fluorescence Polarization (FP) Assay
assayConditions: Fluorescence Polarization (FP) Assay; values given as upper bounds of activity ranges; read-out: FP activity range
pIC50: −log10 of the molar value.
reportedEndpoint: pIC50

The cases that follow already have their pIC50 on record.
{"columns": ["compound", "pIC50"],
 "data": [
  ["Fc1c(NCc2ccc(OCC3CCCO3)cc2)ncnc1N1CCCC1c1ccc(C(F)(F)F)cc1 (stereo not shown)", "> 5.00"],
  ["Fc1c(NCC2(F)CCOCC2)ncnc1N1CCOC[C@@H]1c1ccc(C(F)(F)F)cc1", "> 6.30"],
  ["CS(=O)(=O)CC1(CNc2ncnc(N3CCC[C@@H]3c3ccc(C(F)(F)F)cc3)c2F)CCOCC1", "> 6.30"],
  ["NC(=O)Cc1ccc(CNc2ncnc(N3CCOC[C@@H]3c3ccc(OC(F)(F)F)cc3F)c2F)cc1", "> 6.30"],
  ["O=C(O)Cc1ccc(Cn2ccc3c(N4CCC[C@@H]4c4ccc(C(F)(F)F)cc4)ncnc32)cc1", "> 6.30"]
]}

# input Form field - read-out: pIC50; system: human RORγt (Ligand Binding Domain) (Homo sapiens); submitted item: Fc1c(NCC2CCOCC2)ncnc1N1CCC[C@@H]1c1ccc(C(F)(F)F)cc1
# output > 6.30

# input // lookup pIC50 | system=human RORγt (Ligand Binding Domain) (Homo sapiens) | key= Cc1ccc(CNc2nccc(N3CCCC3c3ccc(C(F)(F)F)cc3)c2F)cn1 (stereo not shown)
# output > 5.70

# input Give the reported pIC50 for CC(C)C[C@@H](Nc1ncnc(N2CC(C)CC2c2ccc(C(F)(F)F)cc2)c1F)C(=O)O (stereo partly shown) (system: human RORγt (Ligand Binding Domain) (Homo sapiens)).
# output > 5.00

# input Hello, I am looking for reported pIC50 with human RORγt (Ligand Binding Domain) (Homo sapiens) for CC1CCC(CNc2ncnc(N3CCCC3c3ccc(C(F)(F)F)cc3)c2F)CC1 (stereo not shown) . Could you help?
# output > 6.30

# input Provide value of pIC50 for this record tested with human RORγt (Ligand Binding Domain) (Homo sapiens): CN(C)C(=O)c1cccc(CNc2ncnc(N3CCCC3c3ccc(C(F)(F)F)cc3)c2F)c1 (stereo not shown)
# output > 5.00

# input Lookup: pIC50 / human RORγt (Ligand Binding Domain) (Homo sapiens) / CC1(CNc2ncnc(N3CCOC[C@@H]3c3ccc(C(F)(F)F)cc3)c2F)COC1
# output > 5.70

# input Lab note: need pIC50 for OC1(CNc2ncnc(N3CCC[C@@H]3c3ccc(C(F)(F)F)cc3)c2F)CCSCC1 on human RORγt (Ligand Binding Domain) (Homo sapiens), anyone have it?
# output > 6.30

# input Recall the recorded pIC50 for Fc1c(NCc2cccc(Cn3cncn3)c2)ncnc1N1CCCC1c1ccc(C(F)(F)F)cc1 (stereo not shown) with human RORγt (Ligand Binding Domain) (Homo sapiens) and state it.
# output > 5.70

# input Query the reported pIC50 for human RORγt (Ligand Binding Domain) (Homo sapiens); item: O=C(O)Cc1ccc(CNc2ncnc(N3CCOCC3c3ccccc3)c2F)cc1 (stereo not shown)
# output > 5.70

====

assayedSystem: human RORγt (Ligand Binding Domain) (Homo sapiens)
Construct: purchased Crelux (Planegg, Germany) batch no PC5032-1
procedureSummary: Fluorescence Polarization (FP) Assay
assayConditions: Fluorescence Polarization (FP) Assay; values given as upper bounds of activity ranges; read-out: FP activity range
pIC50: −log10 of the molar value.
pIC50 for assorted compounds

Take a look at these entries with their results.
{"columns": ["compound", "assayedSystem", "reportedEndpoint", "resultValue"],
 "data": [
  ["CS(=O)(=O)N[C@H]1CC[C@H](CNc2ncnc(N3CCOC[C@@H]3c3ccc(OC(F)(F)F)cc3)c2F)CC1", "human RORγt (Ligand Binding Domain) (Homo sapiens)", "pIC50", "> 6.30"],
  ["CNC(=O)C1(CNc2ncnc(N3CCOC[C@@H]3c3ccc(C(F)(F)F)cc3)c2F)CCOCC1", "human RORγt (Ligand Binding Domain) (Homo sapiens)", "pIC50", "> 5.70"],
  ["O=C1CCC(CNc2ncnc(N3CCCC3c3ccc(C(F)(F)F)cc3)c2F)N1 (stereo not shown)", "human RORγt (Ligand Binding Domain) (Homo sapiens)", "pIC50", "> 5.00"]
]}

# input Report pIC50 for CC(C)(C)C[C@@H](Nc1ncnc(N2CCCC2c2ccc(OC(C)(C)C)cc2)c1F)C(N)=O (stereo partly shown) please.
# output > 6.00

# input // query pIC50 value for entry NC(=O)CC1CCC(CNc2ncnc(N3CCOC[C@@H]3c3ccc(C(F)(F)F)cc3)c2F)CC1 (stereo partly shown)
# output > 6.00

# input Any idea what its pIC50 is? The compound is CC(C)(C)C[C@@H](Nc1ncnc(N2CCCC2c2ccc(C(F)(F)F)cc2Cl)c1F)C(=O)O (stereo partly shown)
# output > 5.70

# input # get_value(readout='pIC50', item= CN1CC(CN(C)c2ncnc(N3CCCC3c3ccc(C(F)(F)F)cc3)c2F)CC1=O (stereo not shown) )
# output > 5.00

====

assayedSystem: human RORγt (Ligand Binding Domain) (Homo sapiens)
Construct: purchased Crelux (Planegg, Germany) batch no PC5032-1
procedureSummary: Fluorescence Polarization (FP) Assay
assayConditions: Fluorescence Polarization (FP) Assay; values given as upper bounds of activity ranges; read-out: FP activity range
Measured IC50, listed per entry for reference.

Past entries and their recorded results:
{"columns": ["compound", "reportedEndpoint", "resultValue"],
 "data": [
  ["O=S1(=O)CCOC(CNc2ncnc(N3CCC[C@@H]3c3ccc(C(F)(F)F)cc3)c2F)C1 (stereo partly shown)", "IC50", "< 10 µM"],
  ["CC(C)c1ccc(C2CCCN2c2ncnc(NCc3ccc(CC(N)=O)cc3)c2F)cc1 (stereo not shown)", "IC50", "< 0.5 µM"],
  ["CNC(=O)c1cccc(CNc2ncnc(N3CCCC3c3ccc(C(F)(F)F)cc3)c2F)c1 (stereo not shown)", "IC50", "< 10 µM"],
  ["O=S1(=O)CCC(O)(CNc2ncnc(N3CCOC[C@@H]3c3ccc(C(F)(F)F)cc3)c2F)CC1", "IC50", "< 1 µM"],
  ["CC(C)CC(Nc1ncnc(N2CCCC2c2ccc(C(F)(F)F)cc2)c1F)c1nnn[nH]1 (stereo not shown)", "IC50", "< 10 µM"]
]}

# input So what's the measured IC50 for this one? NC(=O)CC1CCC(CNc2ncnc(N3CCOC[C@@H]3c3ccc(OC(F)(F)F)cc3)c2F)CC1 (stereo partly shown)
# output < 1 µM

# input So what's the measured IC50 for this one? CC(C)(C)C[C@@H](Nc1cc(N2CCCC2c2ccc(C(F)(F)F)cc2)ncn1)C(N)=O (stereo partly shown)
# output < 10 µM

====

assayedSystem: human RORγt (Ligand Binding Domain) (Homo sapiens)
Construct: purchased Crelux (Planegg, Germany) batch no PC5032-1
procedureSummary: Fluorescence Polarization (FP) Assay
assayConditions: Fluorescence Polarization (FP) Assay; values given as upper bounds of activity ranges; read-out: FP activity range
reportedEndpoint: IC50

# input // returns reported IC50 for input Fc1c(NCC2CCCO2)ncnc1N1CCC[C@@H]1c1ccc(C(F)(F)F)cc1 (stereo partly drawn)
# output < 10 µM

# input What IC50 value was documented for this molecule, NC(=O)Cc1ccc(Cn2ccc3c(N4CCOC[C@@H]4c4ccc(C(F)(F)F)cn4)ncnc32)cc1 ?
# output < 0.5 µM

# input Param item = CC1(CNc2ncnc(N3CCC[C@@H]3c3ccc(C(F)(F)F)cc3)c2F)CCCS1 (stereo partly drawn) ; retrieve measured IC50.
# output < 0.5 µM

# input Query (molecule): O=S(=O)(CC(F)(F)F)N[C@H]1CC[C@H](CNc2ncnc(N3CCOC[C@@H]3c3ccc(OC(F)(F)F)cc3)c2F)CC1 ; field requested: IC50
# output < 0.5 µM

# input Which IC50 value is on record for OC1(CNc2ncnc(N3CCOC[C@@H]3c3ccc(C(F)(F)F)cc3)c2F)CCOC1 (stereo partly drawn) ?
# output < 10 µM

# input Reported IC50 for O=C(c1ccc(CNc2ncnc(N3CCCC3c3ccc(C(F)(F)F)cc3)c2F)cc1)N1CCOCC1 (stereo not drawn) : what is it?
# output < 10 µM

# input Consider the molecule NC(=O)Cc1ccc(Cn2ccc3c(N4CCC[C@@H]4c4ccc(C(F)(F)F)cc4)ncnc32)cc1 and give its measured IC50.
# output < 0.5 µM

# input Which IC50 value is on record for NC(=O)[C@@H](CC1CCNC1=O)Nc1ncnc(N2CCCC2c2ccc(C(F)(F)F)cc2)c1F (stereo partly drawn) ?
# output < 2 µM

# input Fill in the blank: the reported IC50 of CS(=O)(=O)Cc1ccc(CNc2ncnc(N3CCCC3c3ccc(C(F)(F)F)cc3)c2F)cc1 (stereo not drawn) is ____.
# output < 1 µM

Reference for the values: patent US10689383B2
